Source listed as paper PMC10397247.

# tgt: T1, 4H2949-AA
# T1 chain: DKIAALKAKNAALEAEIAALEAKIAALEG
# measurement.protocol: two-hybrid library CCmax;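 note: natural log of median RNA to DNA barcode read ratio; higher means stronger binding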
# cond: mean of both orientations
Item-by-item account of interaction score
// no unit, no text: just the number

Answered examples (5):
- binder: "DKIAALEAENAALKAKIAALEAKIAALEG [4H2277-AA]"
  interaction score: 0.749
- binder: "DENAALKAEIAALEAEIAALKAKNAALKG [4H1552-AA]"
  interaction score: -1.42
- binder: "DENAALEAKIAALKAEIAALEAKNAALKG [4H1352-AA]"
  interaction score: -0.999
- binder: "DEIAALEAEIAALKAKNAALKAEIAALKG [4H122-AA]"
  interaction score: -0.323
- binder: "DKIAALKAEIAALKAENAALEAEIAALKG [4H2642-AA]"
  interaction score: -0.263

Which interaction score is reported for this binder? DKIAALEAENAALEAEIAALKAKIAALKG [4H2190-AA]
2.07

Which interaction score is reported for this binder? DKIAALKAENAALEAKIAALKAEIAALEG [4H2729-AA]
1.85
